Data origin, for the record: patent US9340577B2

target-or-system: DRB5*0101 (Homo sapiens, UniProt P01903+Q30154)
method-summary: biochemical
condition-info: Binding affinity DRB5 *0101
No end group written: not given here.
test-readout: IC50

Record excerpt, results attached:
LNTVKIPPTVQISTG [Peptide 90.0028] ... > 20 µM
GNEIFNTSLFEPPPP [Peptide 68.0090] ... > 20 µM
RGIIILLLIRFRCSK [Peptide 89.0063] ... > 20 µM
DRGIIILLLIRFRCS [Peptide 89.0062] ... > 20 µM
MVQVEEQQTTLSCNG [Peptide 89.0040] ... > 20 µM
VVTIPNSVQISVGYM [Peptide 1601.41] ... > 20 µM

Hello, I would appreciate it if you could give IC50 for each entry below.
1. HCTLYTAVSSTWHWT [Peptide 89.0157]
2. GVNHQHLPARRAEPQ [Peptide 1543.05]
3. AFQVIELQMALETLN [Peptide 90.0024]
4. ISEVMGDTPEWIQRL [Peptide 90.0052]
5. DICNTMHYTNWTHIY [Peptide 1601.04]
6. PDGQAEQATSNYYIV [Peptide 1543.43]

1. > 20 µM
2. > 20 µM
3. > 20 µM
4. > 20 µM
5. > 20 µM
6. > 20 µM

Hello, I would appreciate it if you could give IC50 for each entry below.
1. ITHIGHQVVPPMAVS [Peptide 90.0010]
2. QWAYDNDIVDDSEIA [Peptide 90.0036]

1. > 20 µM
2. > 20 µM
